assay: NCI Yeast Anticancer Drug Screen. Data for the bub3 strain (AID 167); conditions: S. cerevisiae bub3 mutant strain, at 3.7 µM
This is part of a sample that, as a whole, favours compounds with a hit. Of some 79,000 tested, about 15% had one in any assay. Active and inactive are the calls of the source. No stated cut-off is given here; in the data, active means growth inhibition above about 70%; inactive means the rest.
Your reply should match one of these outcome classes. active, inactive

[[record]]
compound = "CCCN(CCC)c1c([N+](=O)[O-])cc(S(N)(=O)=O)cc1[N+](=O)[O-]"
label = "inactive"

[[record]]
compound = "O=C1c2ccc3ccccc3c2CCC1N1CCCCC1 (stereo not given)"
label = "inactive"

[[record]]
compound = "O=[N+]([O-])c1ccc(N2CCC(CCCC3CCN(c4ccc([N+](=O)[O-])cc4[N+](=O)[O-])CC3)CC2)c([N+](=O)[O-])c1"
label = "inactive"

[[record]]
compound = "COc1cc(O)c2c(O)c3c(c4c2c1[C@]1(C4)C(C)=CCCC1(C)C)[C@H](O)[C@@]1(O)CC(=O)C(C(N)=O)=C(O)[C@@]1(O)C3=O"
label = "active"

[[record]]
compound = "O=C(/C=C(\\c1ccccc1)N1CC1)c1ccccc1"
label = "inactive"

[[record]]
compound = "Nc1nc(N)c(-c2ccc(Cl)c(Cl)c2)c(CP(Cl)(Cl)(Cl)Br)n1"
label = "inactive"


-- ask Which outcome was assigned to `CN(CCc1ccc(Br)cc1)CCN1CCCCC1` in this test?
-- reply inactive

-- ask Which outcome was assigned to `S=C1NC2(CCCCC2)NC12CCCCC2` in this test?
-- reply inactive

-- ask Which outcome was assigned to `CCN(CCCl)c1cc(CN(C)C)cc(NC(=O)c2ccc(C(=O)Nc3cc(CN(C)C)cc(N(CC)CCCl)c3)cc2)c1` in this test?
-- reply inactive

-- ask Which outcome was assigned to `O=C1C=CC(=O)C1(Br)Br` in this test?
-- reply inactive
